molecular target: human TLR7 (Homo sapiens (Human), UniProt Q9NYK1); test: TLR7 inhibition reporter assay (HEK-Blue cells, SEAP reporter, gardiquimod stimulation); format: cell-based; settings: HEK-Blue cells overexpressing human TLR7, gardiquimod 7.5 μM
Sequence (Q9NYK1 27-1049): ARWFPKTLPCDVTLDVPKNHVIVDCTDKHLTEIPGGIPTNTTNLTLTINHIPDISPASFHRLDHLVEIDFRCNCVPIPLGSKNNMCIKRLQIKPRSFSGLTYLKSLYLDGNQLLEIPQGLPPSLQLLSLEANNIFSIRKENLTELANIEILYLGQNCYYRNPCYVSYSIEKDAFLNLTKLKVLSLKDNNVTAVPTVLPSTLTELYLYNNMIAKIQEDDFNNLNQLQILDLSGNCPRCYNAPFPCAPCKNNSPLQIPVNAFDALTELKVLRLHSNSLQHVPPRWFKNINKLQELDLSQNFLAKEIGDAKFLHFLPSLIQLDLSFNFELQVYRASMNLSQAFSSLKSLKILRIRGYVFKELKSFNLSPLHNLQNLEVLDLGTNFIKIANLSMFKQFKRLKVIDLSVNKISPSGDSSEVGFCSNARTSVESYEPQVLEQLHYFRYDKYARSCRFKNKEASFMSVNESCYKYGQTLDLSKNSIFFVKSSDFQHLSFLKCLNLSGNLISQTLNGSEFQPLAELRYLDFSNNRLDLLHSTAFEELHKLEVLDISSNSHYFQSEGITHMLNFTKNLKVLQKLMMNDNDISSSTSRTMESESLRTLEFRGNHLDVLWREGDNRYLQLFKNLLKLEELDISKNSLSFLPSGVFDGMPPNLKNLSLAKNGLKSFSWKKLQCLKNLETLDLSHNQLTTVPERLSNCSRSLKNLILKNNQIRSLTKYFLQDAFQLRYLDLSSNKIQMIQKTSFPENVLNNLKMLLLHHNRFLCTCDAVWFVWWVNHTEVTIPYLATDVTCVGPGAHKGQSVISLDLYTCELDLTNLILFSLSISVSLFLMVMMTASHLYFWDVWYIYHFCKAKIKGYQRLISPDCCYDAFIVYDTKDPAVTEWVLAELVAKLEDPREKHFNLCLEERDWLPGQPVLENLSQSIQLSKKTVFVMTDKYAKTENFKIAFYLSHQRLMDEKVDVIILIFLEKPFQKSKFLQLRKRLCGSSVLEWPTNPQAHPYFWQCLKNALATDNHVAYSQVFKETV
METRIC_NAME: IC50 (nM)

These solved cases illustrate the format of a correct answer.
COMPOUND	UOM	IC50
CCCNC(=O)CN1CCC(c2ccc3[nH]c(-c4cc(C)nc(C)c4)c(C(C)C)c3c2)CC1 [Example 238]	nM	5.2
Cc1cc(-c2[nH]c3ccc(C4CCN(C(=O)C5CC(=O)N(C)C5)CC4)cc3c2C(C)C)ccn1 (stereo not shown) [Example 566]	nM	78.8
Cc1cc(-c2[nH]c3ccc(C4CCN(C(=O)CNC(C)C)CC4)cc3c2C(C)C)cc(C)n1 [Example 344]	nM	2.5

I = CCc1c(-c2ccnc(C)c2)[nH]c2cc(F)c(C3CCNCC3)c(F)c12 [Example 83]
II = CNCC(=O)N1CCC(c2ccc3[nH]c(-c4cc(C)nc(C)c4F)c(C(C)C)c3c2)CC1 [Example 622]
III = Cc1cc(-c2[nH]c3ccc(C4CCN(CC(=O)N5CCC(O)CC5)CC4)cc3c2C(C)C)cc(C)n1 [Example 230]
Request: Sort these compounds on IC50 so the largest reading comes first. Give the labels in the order requested.
Response: I, III, II
